Molecular target: T1, Cynomolgus monkey CD98 ECD with C-terminal His-tag (cynomolgus monkey, UniProt P08195 105-529 (human entry))
T1 construct: also called cyCD98 ECD; recombinant cynomolgus monkey CD98 extracellular domain
T1 chain: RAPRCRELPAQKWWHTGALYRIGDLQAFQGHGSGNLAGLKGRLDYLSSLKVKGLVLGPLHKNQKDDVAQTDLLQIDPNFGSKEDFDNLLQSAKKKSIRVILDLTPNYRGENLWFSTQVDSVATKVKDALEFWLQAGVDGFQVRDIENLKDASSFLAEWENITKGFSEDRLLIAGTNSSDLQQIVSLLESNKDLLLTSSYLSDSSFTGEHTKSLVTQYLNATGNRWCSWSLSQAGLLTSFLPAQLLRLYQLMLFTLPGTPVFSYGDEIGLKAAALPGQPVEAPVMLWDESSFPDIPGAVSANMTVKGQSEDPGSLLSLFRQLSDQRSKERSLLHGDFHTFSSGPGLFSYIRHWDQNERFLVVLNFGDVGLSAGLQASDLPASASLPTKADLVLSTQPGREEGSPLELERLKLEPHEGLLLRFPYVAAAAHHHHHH
Assay: SPR Biacore, anti-Fc capture of mAb, CD98 ECD analyte
Readout: koff (s⁻¹)
Report the figure in s⁻¹ without appending any unit label.

These solved cases illustrate the format of a correct answer.
Recombinant anti-CD98 chimeric antibody chAb6 (antibody, human IgG1, V domains shown) VH: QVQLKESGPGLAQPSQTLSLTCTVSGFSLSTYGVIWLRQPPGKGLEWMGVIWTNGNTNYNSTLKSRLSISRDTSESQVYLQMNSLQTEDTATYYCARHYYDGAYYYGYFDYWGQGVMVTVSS VL: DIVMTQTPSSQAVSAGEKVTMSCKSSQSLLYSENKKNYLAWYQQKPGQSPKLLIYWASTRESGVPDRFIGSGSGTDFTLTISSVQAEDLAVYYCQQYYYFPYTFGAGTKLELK	0.00037
Recombinant anti-CD98 chimeric antibody chAb5 (antibody, human IgG1, V domains shown) VH: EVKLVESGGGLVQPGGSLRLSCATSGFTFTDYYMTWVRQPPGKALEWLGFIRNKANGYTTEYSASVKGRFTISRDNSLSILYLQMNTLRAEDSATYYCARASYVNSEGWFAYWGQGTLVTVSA VL: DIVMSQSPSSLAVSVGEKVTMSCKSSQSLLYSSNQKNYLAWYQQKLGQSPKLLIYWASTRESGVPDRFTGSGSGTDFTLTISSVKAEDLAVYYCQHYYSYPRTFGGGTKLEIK	0.00044
Recombinant anti-CD98 chimeric antibody chAb12 (antibody, human IgG1, V domains shown) VH: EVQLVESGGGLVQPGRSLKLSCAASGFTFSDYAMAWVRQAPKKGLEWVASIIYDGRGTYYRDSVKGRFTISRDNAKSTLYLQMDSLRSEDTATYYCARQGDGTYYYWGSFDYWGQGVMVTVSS VL: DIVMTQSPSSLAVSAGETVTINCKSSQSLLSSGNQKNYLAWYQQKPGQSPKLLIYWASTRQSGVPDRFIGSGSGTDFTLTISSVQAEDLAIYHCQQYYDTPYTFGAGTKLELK	9.3e-05
Recombinant anti-CD98 chimeric antibody chAb13 (antibody, human IgG1, V domains shown, also called chAbl 3) VH: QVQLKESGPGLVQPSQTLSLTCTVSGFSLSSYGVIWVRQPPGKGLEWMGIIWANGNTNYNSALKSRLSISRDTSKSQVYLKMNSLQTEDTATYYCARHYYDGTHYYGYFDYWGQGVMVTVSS VL: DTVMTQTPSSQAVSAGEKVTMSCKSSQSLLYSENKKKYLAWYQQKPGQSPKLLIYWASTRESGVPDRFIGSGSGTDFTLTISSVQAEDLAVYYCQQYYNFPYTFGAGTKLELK	0.00044
Recombinant anti-CD98 chimeric antibody chAb10 (antibody, human IgG1, V domains shown) VH: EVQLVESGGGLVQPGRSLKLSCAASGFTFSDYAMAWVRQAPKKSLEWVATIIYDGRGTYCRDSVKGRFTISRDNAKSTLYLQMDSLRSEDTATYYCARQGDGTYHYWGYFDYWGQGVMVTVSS VL: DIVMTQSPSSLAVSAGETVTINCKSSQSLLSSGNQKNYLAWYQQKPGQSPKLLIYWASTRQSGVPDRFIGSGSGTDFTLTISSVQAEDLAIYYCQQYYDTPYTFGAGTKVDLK	0.00064

Problem: Give its koff value. Item: Recombinant anti-CD98 chimeric antibody chAb8 (antibody, human IgG1, V domains shown) VH: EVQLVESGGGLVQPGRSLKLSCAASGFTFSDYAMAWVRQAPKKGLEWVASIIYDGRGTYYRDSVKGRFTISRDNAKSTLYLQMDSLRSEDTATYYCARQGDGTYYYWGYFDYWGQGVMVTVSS VL: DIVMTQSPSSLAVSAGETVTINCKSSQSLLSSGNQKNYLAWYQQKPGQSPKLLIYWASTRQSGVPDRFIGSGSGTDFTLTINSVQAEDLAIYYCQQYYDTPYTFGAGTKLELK
Result: 0.0005

Problem: What value of koff has been reported for the following binder? Recombinant anti-CD98 chimeric antibody chAb9 (antibody, human IgG1, V domains shown) VH: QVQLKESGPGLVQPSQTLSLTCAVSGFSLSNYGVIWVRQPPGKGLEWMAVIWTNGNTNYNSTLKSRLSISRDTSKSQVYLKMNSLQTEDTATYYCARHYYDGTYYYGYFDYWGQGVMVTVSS VL: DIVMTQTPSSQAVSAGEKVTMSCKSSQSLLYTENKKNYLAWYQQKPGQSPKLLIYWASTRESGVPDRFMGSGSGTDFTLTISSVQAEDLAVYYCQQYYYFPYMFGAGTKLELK
Result: 0.00063
